Below, each entry is listed with its recorded melting point.

Reference set (4 entries):
[[record]]
molecule = "CC(C)(C)OC(=O)NC(C(=O)O)C1(O)CCSC1 (stereo not given)"
result = "116 to 118 °C"

[[record]]
molecule = "Cc1nc2c(c(N3CCN(CCO)CC3)n1)OC(C)C(=O)N2 (stereo not given)"
result = "160 to 161 °C"

[[record]]
molecule = "Nc1cc2cccnc2c(-c2cccc([N+](=O)[O-])c2)n1"
result = "221 to 223 °C"

[[record]]
molecule = "COc1cccc(C(=O)N2CCc3cc(O)c(OC)cc3C2)c1"
result = "141 to 142 °C"


Now look at this entry.
Q. Consider the molecule shown here: CCCCCCCCCOc1ccc(-c2ccc(OCC(C)CC)nn2)cc1 (stereo not given) What is its recorded melting point?
A. 87 °C
